tested on: NCI-H2347; experiment: relative viability (nuclei count vs DMSO), 5 days (fraction); higher = more cells survive; conditions: first compound 0.1581 µM
test-readout: relative viability
Answers are plain numbers.

>  <compound>
CC1(C)CCC(c2ccc(Cl)cc2)=C(CN2CCN(c3ccc(C(=O)NS(=O)(=O)c4ccc(N[C@H](CCN5CCOCC5)CSc5ccccc5)c(S(=O)(=O)C(F)(F)F)c4)cc3)CC2)C1 [Navitoclax] + Cc1nc(Nc2ncc(C(=O)Nc3c(C)cccc3Cl)s2)cc(N2CCN(CCO)CC2)n1 [Dasatinib] (partner 0.075 µM)

>  <relative viability>
0.262

$$$$
>  <compound>
CC1(C)CCC(c2ccc(Cl)cc2)=C(CN2CCN(c3ccc(C(=O)NS(=O)(=O)c4ccc(N[C@H](CCN5CCOCC5)CSc5ccccc5)c(S(=O)(=O)C(F)(F)F)c4)cc3)CC2)C1 [Navitoclax] + CC(=O)Nc1cccc(-n2c(=O)n(C3CC3)c(=O)c3c(Nc4ccc(I)cc4F)n(C)c(=O)c(C)c32)c1 [Trametinib] (partner 0.02 µM)

>  <relative viability>
0.32

$$$$
>  <compound>
CC1(C)CCC(c2ccc(Cl)cc2)=C(CN2CCN(c3ccc(C(=O)NS(=O)(=O)c4ccc(N[C@H](CCN5CCOCC5)CSc5ccccc5)c(S(=O)(=O)C(F)(F)F)c4)cc3)CC2)C1 [Navitoclax] + N=C(N)NC(=N)NCCc1ccccc1 [Phenformin] (partner 250 µM)

>  <relative viability>
0.321

$$$$

Each compound below has a recorded value; state its relative viability.
1. CC1(C)CCC(c2ccc(Cl)cc2)=C(CN2CCN(c3ccc(C(=O)NS(=O)(=O)c4ccc(N[C@H](CCN5CCOCC5)CSc5ccccc5)c(S(=O)(=O)C(F)(F)F)c4)cc3)CC2)C1 [Navitoclax] + C[C@]1(O)C[C@@H](c2nc(-c3ccc4ccc(-c5ccccc5)nc4c3)c3c(N)nccn32)C1 [Linsitinib] (partner 1 µM)
2. CC1(C)CCC(c2ccc(Cl)cc2)=C(CN2CCN(c3ccc(C(=O)NS(=O)(=O)c4ccc(N[C@H](CCN5CCOCC5)CSc5ccccc5)c(S(=O)(=O)C(F)(F)F)c4)cc3)CC2)C1 [Navitoclax] + O=C(c1cc(Cc2n[nH]c(=O)c3ccccc23)ccc1F)N1CCN(C(=O)C2CC2)CC1 [Olaparib] (partner 8 µM)
3. CC1(C)CCC(c2ccc(Cl)cc2)=C(CN2CCN(c3ccc(C(=O)NS(=O)(=O)c4ccc(N[C@H](CCN5CCOCC5)CSc5ccccc5)c(S(=O)(=O)C(F)(F)F)c4)cc3)CC2)C1 [Navitoclax] + CC(=O)c1c(C)c2cnc(Nc3ccc(N4CCNCC4)cn3)nc2n(C2CCCC2)c1=O [Palbociclib] (partner 0.5 µM)
4. CC1(C)CCC(c2ccc(Cl)cc2)=C(CN2CCN(c3ccc(C(=O)NS(=O)(=O)c4ccc(N[C@H](CCN5CCOCC5)CSc5ccccc5)c(S(=O)(=O)C(F)(F)F)c4)cc3)CC2)C1 [Navitoclax] + COc1cc2c(Oc3ccc(NC(=O)C4(C(=O)Nc5ccc(F)cc5)CC4)cc3F)ccnc2cc1OCCCN1CCOCC1 [Foretinib] (partner 0.25 µM)

Response:
0.954
0.61
0.439
0.665

Data origin, for the record: the supplement of paper PMC10307832
